Measured pIC50 by item
tested on: HeLa; assay: Cytotoxicity against human HeLa cells assessed as cell viability after 48 hrs by MTT assay; assay type: functional, cell-based
pIC50: −log10 of the molar value.
assay.metric: pIC50

given.smiles: CC1=C(CO)C(=O)O[C@@H]([C@@H](C)[C@H]2CC[C@H]3[C@@H]4C[C@@H](O)[C@]5(C=O)C=CC(=O)[C@]5(C)[C@H]4CC[C@]23C)C1
test.value: < 4.40
--
given.smiles: CC1=C(CO)C(=O)O[C@@H]([C@@H](C)[C@H]2CC[C@H]3[C@@H]4C[C@H](O)[C@]5(O)[C@@H](O)C=CC(=O)[C@]5(C)[C@H]4CC[C@]23C)C1
test.value: < 4.40
--
given.smiles: CC1=C(C)C(=O)O[C@@H]([C@@H](C)[C@H]2CC[C@H]3[C@@H]4C[C@@H](O)[C@]5(C=O)CCC(=O)[C@]5(C)[C@H]4CC[C@]23C)C1
test.value: < 4.40

----------
Measured pIC50 by item
tested on: A549; assay: Cytotoxicity against human A549 cells assessed as cell viability after 72 hrs by MTT assay; type: functional, cell-based; conditions: A549, 72 h
pIC50: −log10 of the molar value.
assay.metric: pIC50

given.smiles: CC1=C(CO)C(=O)O[C@@H](/C(C)=C2\[C@@H](O)C[C@H]3[C@@H]4C[C@H]5O[C@]56[C@@H](O)C=CC(=O)[C@]6(C)[C@H]4CC[C@]23C)C1
assay.metric: pIC50
test.value: < 4.40
//
given.smiles: CC1=C(COC(C)(C)OC=O)C(=O)O[C@@H]([C@@H](C)[C@H]2CC[C@H]3[C@@H]4C[C@H]5O[C@]56[C@@H](O)C=CC(=O)[C@]6(C)[C@H]4CC[C@]23C)C1
assay.metric: pIC50
test.value: < 4.40
//
given.smiles: CC1=C(CO)C(=O)O[C@@H]([C@@H](C)[C@H]2CC[C@H]3[C@@H]4C[C@@H](O)[C@]5(C=O)CCC(=O)[C@]5(C)[C@H]4CC[C@]23C)C1
assay.metric: pIC50
test.value: < 4.40
